Target Entity: APH(2”)-IVa (Enterococcus casseliflavus)
Test Description: biochemical
Conditions Used: Ki (µM), inhibition constant, ATP-competitive; 0-2 mM MgATP, 100 µM kanamycin A, global fitting
Sequence (O68183 1-301): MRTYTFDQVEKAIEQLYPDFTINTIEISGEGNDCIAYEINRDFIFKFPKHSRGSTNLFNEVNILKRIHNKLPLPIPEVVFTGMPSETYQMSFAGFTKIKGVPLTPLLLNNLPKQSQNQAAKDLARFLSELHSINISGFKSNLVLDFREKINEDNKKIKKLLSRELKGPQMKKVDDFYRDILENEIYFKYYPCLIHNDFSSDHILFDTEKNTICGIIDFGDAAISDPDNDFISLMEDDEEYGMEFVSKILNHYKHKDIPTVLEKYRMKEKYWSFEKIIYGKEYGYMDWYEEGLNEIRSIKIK
Quick rule for you: Ki under 30 µM gets 1, anything else gets 0.

- Item Smiles: "NC(=O)CNC(=O)c1cc(NC2CC2)ncc1Cl"
  Target Entity: "APH(2”)-IVa (Enterococcus casseliflavus)"
  Classification: 0
- Item Smiles: "O=C(O)c1c[nH]c2ncc(Cl)cc12"
  Target Entity: "APH(2”)-IVa (Enterococcus casseliflavus)"
  Classification: 1
- Item Smiles: "Clc1cnc2[nH]ccc2c1-c1ccsc1"
  Target Entity: "APH(2”)-IVa (Enterococcus casseliflavus)"
  Classification: 1
- Item Smiles: "O=C(NCCc1ccccc1)c1cc(NC2CC2)ncc1Cl"
  Target Entity: "APH(2”)-IVa (Enterococcus casseliflavus)"
  Classification: 0
- Item Smiles: "CNC(=O)c1c[nH]c2ncc(Cl)cc12"
  Target Entity: "APH(2”)-IVa (Enterococcus casseliflavus)"
  Classification: 1
- Item Smiles: "O=C(NCCO)c1cc(NC2CC2)ncc1Cl"
  Target Entity: "APH(2”)-IVa (Enterococcus casseliflavus)"
  Classification: 1
- Item Smiles: "CN(C)C(=O)c1c[nH]c2ncc(Cl)cc12"
  Target Entity: "APH(2”)-IVa (Enterococcus casseliflavus)"
  Classification: 1
- Item Smiles: "Nc1cc(-c2ccn[nH]2)ccn1"
  Target Entity: "APH(2”)-IVa (Enterococcus casseliflavus)"
  Classification: 0
- Item Smiles: "Clc1cnc2[nH]ccc2c1"
  Target Entity: "APH(2”)-IVa (Enterococcus casseliflavus)"
  Classification: 1
- Item Smiles: "NNC(=O)c1cc(NC2CC2)ncc1Cl"
  Target Entity: "APH(2”)-IVa (Enterococcus casseliflavus)"
  Classification: 1

###

Target Entity: APH(2”)-IVa (Enterococcus casseliflavus)
Test Description: biochemical
Assay type: binding
Conditions Used: read-out: ΔTm (°C)
ΔTm at 500 µM values, listed per item

- Molecule: "Nc1ccccn1"
  Unit Abbreviation: "°C"
  ΔTm at 500 µM: -0.27
- Molecule: "O=C(Nc1ccc(Cl)cc1)Nc1ccc(Cl)cn1"
  Unit Abbreviation: "°C"
  ΔTm at 500 µM: 0.17
- Molecule: "Nc1cc(N2CCOC(c3ccccc3)C2)c(Cl)cn1 (centres unmarked)"
  Unit Abbreviation: "°C"
  ΔTm at 500 µM: -1.22
- Molecule: "Nc1cncc(-c2cc[nH]n2)c1"
  Unit Abbreviation: "°C"
  ΔTm at 500 µM: 1.18
- Molecule: "CC(=O)c1cc2ccccc2oc1=O"
  Unit Abbreviation: "°C"
  ΔTm at 500 µM: 0.09
- Molecule: "Nc1ncc(Cl)cc1S(=O)(=O)NC1CCCNC1 (centres unmarked)"
  Unit Abbreviation: "°C"
  ΔTm at 500 µM: 0.33
- Molecule: "Nc1ccc(Br)cn1"
  Unit Abbreviation: "°C"
  ΔTm at 500 µM: 0.5
- Molecule: "OCc1c[nH]c2ncccc12 [Compound F355, 3-hydroxymethyl-7-azaindole]"
  Unit Abbreviation: "°C"
  ΔTm at 500 µM: -0.41
- Molecule: "Clc1ccc(NCCc2ccccc2)nc1"
  Unit Abbreviation: "°C"
  ΔTm at 500 µM: 0.48
- Molecule: "Nc1ncc(Cl)cc1S(=O)(=O)N1CCCC(N)C1 (centres unmarked)"
  Unit Abbreviation: "°C"
  ΔTm at 500 µM: 1.7
- Molecule: "Nc1cc(N2CCC(C(=O)N3CCCCC3)CC2)c(Cl)cn1"
  Unit Abbreviation: "°C"
  ΔTm at 500 µM: -1.78

###

Target Entity: APH(2”)-IVa (Enterococcus casseliflavus)
Test Description: biochemical
Assay type: binding
Conditions Used: read-out: ΔTm (°C)
Categorized via ΔTm at 500 µM: group A = under 0.2 °C, group B = from 0.2 °C up to 1 °C, group C = 1 °C and over

- Compound: "COC(=O)c1cncc(-c2cc[nH]n2)c1 [Compound 67]"
  Target Entity: "APH(2”)-IVa (Enterococcus casseliflavus)"
  Classification: "group C"
- Compound: "O=C(Nc1ccc(Br)cc1)Nc1ccc(Br)cn1 [Compound 7]"
  Target Entity: "APH(2”)-IVa (Enterococcus casseliflavus)"
  Classification: "group A"
- Compound: "Nc1ncc(Cl)cc1S(=O)(=O)N1CCCCC1c1ncc[nH]1 (stereo not shown) [Compound 24]"
  Target Entity: "APH(2”)-IVa (Enterococcus casseliflavus)"
  Classification: "group C"
- Compound: "O=C(Nc1ccc(O)cc1)Nc1ccc(F)cc1 [Compound 37]"
  Target Entity: "APH(2”)-IVa (Enterococcus casseliflavus)"
  Classification: "group C"
- Compound: "Cn1nccc1C1CCCN(c2cc(N)ncc2Cl)C1 (stereo not shown) [Compound 27]"
  Target Entity: "APH(2”)-IVa (Enterococcus casseliflavus)"
  Classification: "group A"
- Compound: "Nc1ncc(Cl)cc1S(=O)(=O)NCCCN1CCC(O)CC1 [Compound 25]"
  Target Entity: "APH(2”)-IVa (Enterococcus casseliflavus)"
  Classification: "group B"
- Compound: "Nc1ncc(Cl)cc1S(=O)(=O)N1CCCNCC1 [Compound 17]"
  Target Entity: "APH(2”)-IVa (Enterococcus casseliflavus)"
  Classification: "group C"
- Compound: "Nc1cc(-c2ccn[nH]2)ccn1 [Compound 68]"
  Target Entity: "APH(2”)-IVa (Enterococcus casseliflavus)"
  Classification: "group C"
- Compound: "c1cnc2[nH]ccc2c1 [Compound F136, 7-azaindole]"
  Target Entity: "APH(2”)-IVa (Enterococcus casseliflavus)"
  Classification: "group A"
- Compound: "O=C(O)CNC(=O)Nc1ccc(Br)cn1 [Compound 8]"
  Target Entity: "APH(2”)-IVa (Enterococcus casseliflavus)"
  Classification: "group A"
- Compound: "O=Cc1cncc(-c2cc[nH]n2)c1 [Compound 66]"
  Target Entity: "APH(2”)-IVa (Enterococcus casseliflavus)"
  Classification: "group B"
- Compound: "O=C(O)c1cc(NC2CC2)ncc1Cl [Compound 36]"
  Target Entity: "APH(2”)-IVa (Enterococcus casseliflavus)"
  Classification: "group C"

###

Target Entity: APH(2”)-IVa (Enterococcus casseliflavus, UniProt O68183)
pIC50: −log10 of the molar value.
Quantity Measured: pIC50

- Compound: "Clc1cnc2[nH]ccc2c1-c1ccn[nH]1 [Compound 83]"
  Quantity Measured: "pIC50"
  Assay Value: 6.08

###

MIC values, listed per item
Test system: P. aeruginosa clinical isolates
Test Description: MIC by broth micro-dilution
Format: cell-based
Conditions Used: Pseudomonas aeruginosa, P. aeruginosa C0307, aph(3')-IIb; read-out: MIC

- Molecule: "C[C@@H](O)[C@H]1C(=O)N2C(C(=O)O)=C(S[C@@H]3CN[C@H](C(=O)Nc4cccc(C(=O)O)c4)C3)[C@H](C)[C@H]12"
  MIC: "8 to 16 µg/mL"
- Molecule: "NCC[C@H](O)C(=O)N[C@@H]1C[C@H](N)[C@@H](O[C@H]2O[C@H](CN)[C@@H](O)[C@H](O)[C@H]2O)[C@H](O)[C@H]1O[C@H]1O[C@H](CO)[C@@H](O)[C@H](N)[C@H]1O"
  MIC: "4 to 8 µg/mL"
- Molecule: "CNC(C)C1CCC(N)C(OC2C(N)CC(N)C(OC3OCC(C)(O)C(NC)C3O)C2O)O1 (stereo not shown)"
  MIC: "2 µg/mL"
- Molecule: "C[C@@H](O)[C@H]1C(=O)N2C(C(=O)O)=C(SCCN=CN)C[C@H]12"
  MIC: "2 µg/mL"
- Molecule: "[H]/N=C(/N)N[C@H]1[C@H](O)[C@@H](O)[C@H](O[C@@H]2O[C@@H](C)[C@](O)(C=O)[C@H]2O[C@@H]2O[C@@H](CO)[C@H](O)[C@@H](O)[C@@H]2NC)[C@@H](N/C(N)=N\\[H])[C@@H]1O"
  MIC: "64 µg/mL"
- Molecule: "C[C@@H](O)[C@H]1C(=O)N2C(C(=O)O)=C(S[C@@H]3CN[C@H](CNS(N)(=O)=O)C3)[C@H](C)[C@H]12"
  MIC: "0.25 µg/mL"
- Molecule: "C[C@@H](O)[C@H]1C(=O)N2C(C(=O)O)=C(S[C@@H]3CN[C@H](C(=O)N(C)C)C3)[C@H](C)[C@H]12"
  MIC: "0.063 to 0.125 µg/mL"

###

System: S. aureus C0032
Test Description: MIC by broth micro-dilution
Format: cell-based
Conditions Used: Staphylococcus aureus; S. aureus C0032, aph(3')-IIIa ant(6); read-out: MIC
Quantity Measured: MIC

- Molecule: "C[C@@H](O)[C@H]1C(=O)N2C(C(=O)O)=C(S[C@@H]3CN[C@H](C(=O)N(C)C)C3)[C@H](C)[C@H]12"
  Assay Value: "> 4 µg/mL"
- Molecule: "NCC[C@H](O)C(=O)N[C@@H]1C[C@H](N)[C@@H](O[C@H]2O[C@H](CN)[C@@H](O)[C@H](O)[C@H]2O)[C@H](O)[C@H]1O[C@H]1O[C@H](CO)[C@@H](O)[C@H](N)[C@H]1O"
  Assay Value: "16 to 32 µg/mL"
- Molecule: "C[C@@H](O)[C@H]1C(=O)N2C(C(=O)O)=C(S[C@@H]3CN[C@H](CNS(N)(=O)=O)C3)[C@H](C)[C@H]12"
  Assay Value: "> 4 µg/mL"
- Molecule: "CNC(C)C1CCC(N)C(OC2C(N)CC(N)C(OC3OCC(C)(O)C(NC)C3O)C2O)O1 (stereo not drawn)"
  Assay Value: "< 1 µg/mL"
- Molecule: "[H]/N=C(/N)N[C@H]1[C@H](O)[C@@H](O)[C@H](O[C@@H]2O[C@@H](C)[C@](O)(C=O)[C@H]2O[C@@H]2O[C@@H](CO)[C@H](O)[C@@H](O)[C@@H]2NC)[C@@H](N/C(N)=N\\[H])[C@@H]1O"
  Assay Value: "2 to 4 µg/mL"
- Molecule: "C[C@@H](O)[C@H]1C(=O)N2C(C(=O)O)=C(S[C@@H]3CN[C@H](C(=O)Nc4cccc(C(=O)O)c4)C3)[C@H](C)[C@H]12"
  Assay Value: "4 µg/mL"
